Hello, the source for this data is paper PMC8011576, in case you need it.

- test summary: Human clinical nicotine PK
- Format: in vivo
- setup conditions: blood, oral, 16 μM
readout kind: half-life (min)
Only the number, expressed in min, is required.

## Task Given the compound CN1CCC[C@H]1c1cccnc1 , what is its reported half-life?
## Result 10.6
